Taken from patent US20210300940A1.

Biological target: TLR7 (Homo sapiens, UniProt Q9NYK1)
Sequence (Q9NYK1 27-1049): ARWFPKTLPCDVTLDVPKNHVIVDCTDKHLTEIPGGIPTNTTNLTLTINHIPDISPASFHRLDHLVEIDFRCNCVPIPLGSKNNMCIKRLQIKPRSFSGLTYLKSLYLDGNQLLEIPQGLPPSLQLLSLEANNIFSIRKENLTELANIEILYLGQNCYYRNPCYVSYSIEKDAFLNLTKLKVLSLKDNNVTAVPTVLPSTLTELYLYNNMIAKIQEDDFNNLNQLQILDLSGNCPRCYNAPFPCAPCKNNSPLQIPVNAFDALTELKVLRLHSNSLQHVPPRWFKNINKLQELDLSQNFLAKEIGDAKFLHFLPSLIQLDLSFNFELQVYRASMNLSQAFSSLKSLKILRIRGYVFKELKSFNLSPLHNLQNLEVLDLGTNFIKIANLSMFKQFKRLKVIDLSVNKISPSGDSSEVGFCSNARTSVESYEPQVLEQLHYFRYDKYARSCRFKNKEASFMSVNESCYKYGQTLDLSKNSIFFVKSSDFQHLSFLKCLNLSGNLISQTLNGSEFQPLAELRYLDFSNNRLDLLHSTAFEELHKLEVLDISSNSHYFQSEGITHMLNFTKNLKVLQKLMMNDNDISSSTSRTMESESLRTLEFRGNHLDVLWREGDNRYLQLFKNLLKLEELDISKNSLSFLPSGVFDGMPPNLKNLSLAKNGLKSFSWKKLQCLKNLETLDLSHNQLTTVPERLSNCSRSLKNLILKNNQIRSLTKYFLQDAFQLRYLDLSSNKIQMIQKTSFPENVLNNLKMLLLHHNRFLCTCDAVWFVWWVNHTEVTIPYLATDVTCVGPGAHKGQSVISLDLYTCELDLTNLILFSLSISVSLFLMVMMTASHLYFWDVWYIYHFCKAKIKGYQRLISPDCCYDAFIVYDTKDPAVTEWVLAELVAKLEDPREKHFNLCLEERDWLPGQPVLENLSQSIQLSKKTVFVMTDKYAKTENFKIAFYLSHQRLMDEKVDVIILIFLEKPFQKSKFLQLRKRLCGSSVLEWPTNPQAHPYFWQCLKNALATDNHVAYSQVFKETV
Experiment: HEK/293 TLR7 Cell Assay
Settings: TLR7/NFKb HEK cells, R848 agonist 10 uM final concentration, Steady-Glo readout; read-out: TLR7 potency
pIC50: −log10 of the molar value.
measured-metric: pIC50

These recorded examples may help you get a feel for the data.
molecule="C[C@@H]1CN(c2ccc(C#N)c3nccnc23)C[C@H](C(=O)NCC(C)(C)O)O1 [Example 246]" experimental_target="TLR7 (Homo sapiens, UniProt Q9NYK1)" assay_result="> 7.12"
molecule="N#Cc1ccc(N2C[C@H](NCC3CCCNC3)C[C@H](C(F)(F)F)C2)c2cccnc12 (stereo partly shown) [Example 152]" experimental_target="TLR7 (Homo sapiens, UniProt Q9NYK1)" assay_result="6.82 to 7.12"
molecule="CN(C)CCC(=O)N[C@@H]1C[C@H](C(F)(F)F)CN(c2ccc(C(F)(F)F)c3ncccc23)C1 [Example 64]" experimental_target="TLR7 (Homo sapiens, UniProt Q9NYK1)" assay_result="> 7.12"
molecule="C[C@H]1C[C@@H](NCCC(C)(C)O)CN(c2ccc(C(F)(F)F)c3ncccc23)C1 [Example 33]" experimental_target="TLR7 (Homo sapiens, UniProt Q9NYK1)" assay_result="> 7.12"

# input Fill: pIC50 (TLR7 (Homo sapiens, UniProt Q9NYK1)) for this molecule C[C@H]1C[C@@H](NC(=O)[C@@H]2CCCN2)CN(c2ccc(C(F)(F)F)c3ncccc23)C1 [Example 176]
# output 6.82 to 7.12

# input Fill: pIC50 (TLR7 (Homo sapiens, UniProt Q9NYK1)) for this molecule C[C@H]1C[C@@H](NC(=O)[C@@H]2COCCN2)CN(c2ccc(C#N)c3nccnc23)C1 [Example 208]
# output 6.82 to 7.12

# input Fill: pIC50 (TLR7 (Homo sapiens, UniProt Q9NYK1)) for this molecule C[C@H]1C[C@@H](NC(=O)[C@@H]2CCNC2)CN(c2ccc(C(F)(F)F)c3ncccc23)C1 [Example 204]
# output > 7.12

# input Fill: pIC50 (TLR7 (Homo sapiens, UniProt Q9NYK1)) for this molecule N#Cc1ccc(N2C[C@@H](C(F)(F)F)O[C@@H](C(=O)NC[C@@]3(F)CCNC3)C2)c2nccnc12 (single isomer, unassigned) [Example 307]
# output > 7.12

# input Fill: pIC50 (TLR7 (Homo sapiens, UniProt Q9NYK1)) for this molecule CN[C@@H](CO)C(=O)N[C@@H]1C[C@H](C)CN(c2ccc(C(F)(F)F)c3ncccc23)C1 [Example 168]
# output < 6.82

# input Fill: pIC50 (TLR7 (Homo sapiens, UniProt Q9NYK1)) for this molecule CC[C@@H](NC(=O)[C@H]1CN(c2ccc(C#N)c3nccnc23)C[C@@H](C)O1)C(N)=O [Example 248]
# output 6.82 to 7.12

----------
biological target: TLR7 (Homo sapiens); construct: expressed in transfected cells; host or cells: HEK/293 cells carrying TLR7 and an NF-kB luciferase reporter; experiment: HEK/293 TLR7 Cell Assay; format: cell-based; conditions: TLR7/NFKb HEK cells, R848 agonist 10 uM final concentration, Steady-Glo readout; read-out: TLR7 potency
measured-metric: IC50

These recorded examples may help you get a feel for the data.
compound=C[C@H]1C[C@@H](NS(=O)(=O)NCCC2CCN(C)CC2)CN(c2ccc(C(F)(F)F)c3ncccc23)C1 experimental_target="TLR7 (Homo sapiens)" measured_metric=IC50 assay_result="< 75 nM"
compound="N#Cc1ccc(N2C[C@H](NC(=O)C3CCCCN3)C[C@H](C(F)(F)F)C2)c2cccnc12 (stereo partly drawn)" experimental_target="TLR7 (Homo sapiens)" measured_metric=IC50 assay_result="75 to 150 nM"

# input Answer with the recorded IC50 of `C[C@H]1C[C@@H](NC(=O)CC2CS(=O)(=O)C2)CN(c2ccc(C#N)c3nccnc23)C1` only.
# output > 150 nM

# input Answer with the recorded IC50 of C[C@H]1C[C@@H](NC(=O)C2CCCCN2)CN(c2ccc(C(F)(F)F)c3ncccc23)C1 (stereo partly drawn) only.
# output < 75 nM

# input Answer with the recorded IC50 of `Cc1c(F)cc(N2C[C@@H](C)C[C@@H](NC(=O)[C@@H](N)CC(N)=O)C2)c2cccnc12` only.
# output 75 to 150 nM

----------
target: TLR8 (Homo sapiens); experiment: HEK/293 TLR8 Cell Assay; settings: HEK cells, R848 agonist 30 uM final concentration, Steady-Glo readout; read-out: TLR8 potency
Sequence (Q9NR97 27-1041): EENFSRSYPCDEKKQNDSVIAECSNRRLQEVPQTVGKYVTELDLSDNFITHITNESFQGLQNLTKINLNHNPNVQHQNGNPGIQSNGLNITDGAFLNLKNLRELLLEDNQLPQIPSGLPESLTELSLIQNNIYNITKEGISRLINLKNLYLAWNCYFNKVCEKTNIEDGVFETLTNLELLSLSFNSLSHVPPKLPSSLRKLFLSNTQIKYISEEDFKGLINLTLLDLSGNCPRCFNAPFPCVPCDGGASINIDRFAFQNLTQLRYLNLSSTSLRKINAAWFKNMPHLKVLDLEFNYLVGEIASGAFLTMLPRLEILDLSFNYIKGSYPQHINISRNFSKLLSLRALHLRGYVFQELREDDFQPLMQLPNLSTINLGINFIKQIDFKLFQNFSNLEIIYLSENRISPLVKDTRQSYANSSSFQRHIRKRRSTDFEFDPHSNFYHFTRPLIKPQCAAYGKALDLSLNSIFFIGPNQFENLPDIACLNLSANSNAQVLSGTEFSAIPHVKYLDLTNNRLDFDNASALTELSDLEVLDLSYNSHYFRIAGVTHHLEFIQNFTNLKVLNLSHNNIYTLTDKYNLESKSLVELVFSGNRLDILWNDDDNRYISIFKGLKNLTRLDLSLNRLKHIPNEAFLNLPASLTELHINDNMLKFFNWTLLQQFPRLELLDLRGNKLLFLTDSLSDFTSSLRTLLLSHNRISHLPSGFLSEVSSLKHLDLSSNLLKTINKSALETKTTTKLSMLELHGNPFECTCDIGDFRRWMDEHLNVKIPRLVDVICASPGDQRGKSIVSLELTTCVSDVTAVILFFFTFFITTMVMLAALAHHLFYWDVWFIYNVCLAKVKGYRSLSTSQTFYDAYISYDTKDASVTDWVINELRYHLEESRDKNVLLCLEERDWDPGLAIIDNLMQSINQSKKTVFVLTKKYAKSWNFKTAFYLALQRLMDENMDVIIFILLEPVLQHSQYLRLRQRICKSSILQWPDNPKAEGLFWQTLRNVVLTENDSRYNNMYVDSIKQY
Listed compounds paired with reported IC50

These recorded examples may help you get a feel for the data.
chem_smiles=C[C@H]1C[C@@H](NC2CS(=O)(=O)C2)CN(c2ccc(C#N)c3nccnc23)C1 measured_metric=IC50 assay_result="75 to 150 nM"
chem_smiles=C[C@@H]1CN(c2ccc(C#N)c3nccnc23)C[C@H](C(=O)NCC(C)(C)O)O1 measured_metric=IC50 assay_result="< 75 nM"
chem_smiles=N#Cc1ccc(N2C[C@H](NC(=O)CC3(F)CCNCC3)C[C@H](C(F)(F)F)C2)c2nccnc12 measured_metric=IC50 assay_result="< 75 nM"
chem_smiles=C[C@@H]1CN(c2ccc(C(F)(F)F)c3ncccc23)C[C@H](CN2CCC(N3CCCC3)CC2)O1 measured_metric=IC50 assay_result="75 to 150 nM"

# ---- query compound ----
# input Answer with the recorded IC50 of `C[C@@H]1CN(c2cnc(C#N)c3ncccc23)C[C@H](Cn2cc(C(=O)O)cn2)O1` only.
# output < 75 nM

----------
target: TLR8 (Homo sapiens); assay: HEK/293 TLR8 Cell Assay; details: HEK cells, R848 agonist 30 uM final concentration, Steady-Glo readout; read-out: TLR8 potency
Structures can show the parent of a compound that is named as a salt.
Listed compounds paired with reported IC50

These recorded examples may help you get a feel for the data.
compound="C[C@H]1C[C@@H](NC(=O)C2CCCCN2)CN(c2ccc(C(F)(F)F)c3ncccc23)C1 (stereo partly drawn)" assay_result="< 75 nM"
compound=C[C@H]1C[C@@H](NC(=O)C[C@H]2[C@@H]3C[C@H]2CN(C)C3)CN(c2ccc(C(F)(F)F)c3ncccc23)C1 assay_result="< 75 nM"
compound=C[C@@H]1CN(c2ccc(C#N)c3nccnc23)C[C@H](CN2CCC(O)CC2)O1 assay_result="> 150 nM"
compound="C[C@H]1C[C@@H](NCCC2CCNC2=O)CN(c2ccc(C(F)(F)F)c3ncccc23)C1 (stereo partly drawn)" assay_result="< 75 nM"

# input Answer with the recorded IC50 of `CCOc1ncc(N2C[C@H](N)C[C@H](C(F)(F)F)C2)c2cccnc12` only.
# output > 150 nM

# input Answer with the recorded IC50 of `C[C@H]1C[C@@H](NCCC(N)=O)CN(c2ccc(C(F)(F)F)c3nccnc23)C1` only.
# output < 75 nM

# input Answer with the recorded IC50 of N#Cc1ccc(N2C[C@H](n3cccn3)C[C@H](C(F)(F)F)C2)c2nccnc12 (racemic) only.
# output > 150 nM

# input Answer with the recorded IC50 of `C[C@H]1C[C@@H](NS(=O)(=O)NC(=O)CN2CCOCC2)CN(c2ccc(C(F)(F)F)c3ncccc23)C1` only.
# output < 75 nM

# input Answer with the recorded IC50 of `C[C@H]1C[C@@H](NCCNC(N)=O)CN(c2ccc(C(F)(F)F)c3ncccc23)C1` only.
# output < 75 nM

# input Answer with the recorded IC50 of C[C@@H]1CN(c2cnc(C#N)c3ncccc23)C[C@H](CNC(=O)C2(F)CCNC2)O1 (stereo partly drawn) only.
# output < 75 nM

# input Answer with the recorded IC50 of `CC(=O)NCCN[C@@H]1C[C@H](C)CN(c2ccc(C#N)c3nccnc23)C1` only.
# output < 75 nM

# input Answer with the recorded IC50 of C[C@H]1C[C@@H](N)CN(c2cnc(C#N)c3ncccc23)C1 [Example 8, hydrochloride] only.
# output < 75 nM
